target: TLR7 (Homo sapiens); construct: Human peripheral blood mononuclear cells (PBMCs) consist of lymphocytes, monocytes and dendritic cells that express TLR7, TLR8 and TLR9; endogenous in cells; test: TLR7 human PBMC cell-based assay (antagonist, GS-986 stimulated cytokine release); conditions: human PBMCs; TLR7 agonist GS-986 400 nM, 6 hours; cytokines (IL-6 and IFNα) in supernatant; read-out: TLR-7 EC50
Sequence (Q9NYK1 27-1049): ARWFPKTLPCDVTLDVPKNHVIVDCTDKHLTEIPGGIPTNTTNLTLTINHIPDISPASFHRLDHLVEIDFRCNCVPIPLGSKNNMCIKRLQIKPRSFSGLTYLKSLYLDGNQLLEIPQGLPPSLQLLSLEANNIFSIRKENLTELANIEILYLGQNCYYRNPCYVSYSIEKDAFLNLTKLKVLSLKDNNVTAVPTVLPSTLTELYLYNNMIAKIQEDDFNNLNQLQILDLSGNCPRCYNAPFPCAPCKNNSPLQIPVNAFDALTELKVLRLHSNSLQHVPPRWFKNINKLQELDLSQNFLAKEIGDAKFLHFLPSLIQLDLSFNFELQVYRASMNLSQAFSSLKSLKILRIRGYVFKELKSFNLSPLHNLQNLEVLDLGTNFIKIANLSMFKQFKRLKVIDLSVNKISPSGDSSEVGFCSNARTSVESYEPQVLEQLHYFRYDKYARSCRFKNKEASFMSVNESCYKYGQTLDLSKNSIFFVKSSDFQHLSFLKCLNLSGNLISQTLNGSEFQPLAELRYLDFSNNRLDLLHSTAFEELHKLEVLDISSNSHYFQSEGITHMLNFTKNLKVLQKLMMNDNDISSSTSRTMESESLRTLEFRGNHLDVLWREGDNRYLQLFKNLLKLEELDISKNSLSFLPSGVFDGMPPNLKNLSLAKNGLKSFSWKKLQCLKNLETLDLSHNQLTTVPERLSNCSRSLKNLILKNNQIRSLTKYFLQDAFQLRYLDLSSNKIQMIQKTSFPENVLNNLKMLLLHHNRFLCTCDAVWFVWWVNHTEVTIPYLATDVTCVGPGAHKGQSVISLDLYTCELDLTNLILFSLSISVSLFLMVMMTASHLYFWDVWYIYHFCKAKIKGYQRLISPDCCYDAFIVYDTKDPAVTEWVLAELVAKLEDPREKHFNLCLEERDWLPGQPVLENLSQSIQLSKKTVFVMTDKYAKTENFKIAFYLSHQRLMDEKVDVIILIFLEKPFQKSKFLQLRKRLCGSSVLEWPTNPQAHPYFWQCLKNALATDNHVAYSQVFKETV
measured.parameter: pEC50
Please note pEC50 is a logarithmic value: minus log10 of concentration in mol/L. Answer with that number alone.

// known answers, use as guide
| smiles.input | pEC50 |
| --- | --- |
| Cc1cc(-c2[nH]c3cc(C(=O)N(C)CCN4CCCC4)sc3c2C(C)C)cn2ncnc12 | 8.39 |
| Cc1cc(-c2[nH]c3cc(-c4nnc(N5CCNCC5)o4)sc3c2C(C)C)cc(C)n1 | 7.13 |
| Cc1cc(-c2[nH]c3cc(C(=O)N4CCNC[C@H]4C)sc3c2C(C)C)cn2ncnc12 | 8.32 |

Field request: pEC50 | item: CCc1c(-c2cc(C)c3ncnn3c2)[nH]c2cc(-c3nc(N4CCNCC4)no3)sc12
9.22

Data provenance: patent US20240217990A1
